The reported numbers originate from patent EP3263567A1.

test: Solubility of compound A; format: physicochemical; settings: aqueous media, pH 7.4, aqueous buffer
property-name: solubility

>>> endpoint_result("O=C1NCc2c1ncnc2-c1cc(-c2cc(Cl)cc(OC(F)(F)F)c2)n(-c2cccnc2)n1")
"50 to 70 µg/mL"
